Overview of recorded ΦEuEu (%) for various compounds
assay: Absorption and photoluminescence (quantum yield, lifetime, q); type: physicochemical; settings: intrinsic quantum yield, calculated value
metricName: ΦEuEu (%)

CC[C@@H]1CN(CC(=O)[O-])[C@H](CC)CN(Cc2cc(C#Cc3c(OC)cc(OC)cc3OC)cc(P(C)(=O)[O-])n2)[C@H](CC)CN(CC(=O)[O-])[C@H](CC)CN1CC(=O)[O-].[Eu+3]; 28.1
CCC1CN(C(C)C(=O)[O-])C(CC)CN(C(C)C(=O)[O-])C(CC)CN(C(C)C(=O)[O-])C(CC)CN1Cc1cc(C#Cc2c(OC)cc(OC)cc2OC)cc(P(C)(=O)[O-])n1.[Eu+3] (centres unmarked); 30.2
COc1cc(OC)c(C#Cc2cc(CN3C[C@H](CC(C)C)N(CC(=O)[O-])C[C@H](CC(C)C)N(CC(=O)[O-])C[C@H](CC(C)C)N(CC(=O)[O-])C[C@@H]3CC(C)C)nc(P(C)(=O)[O-])c2)c(OC)c1.[Eu+3]; 36.9
COc1cc(OC)c(C#Cc2cc(CN3CCN(CC(=O)[O-])CCN(CC(=O)[O-])CCN(CC(=O)[O-])CC3)nc(P(C)(=O)[O-])c2)c(OC)c1.[Eu+3]; 23.6
CC[C@H]1CN(CC(=O)[O-])[C@@H](CC)CN(Cc2cc(C#Cc3c(OC)cc(OC)cc3OC)cc(P(C)(=O)[O-])n2)[C@@H](CC)CN(CC(=O)[O-])[C@@H](CC)CN1CC(=O)[O-].[Eu+3]; 26.0

---

test: Absorption and photoluminescence (quantum yield, lifetime, q); type: physicochemical; conditions: luminescence quantum yield relative to quinine sulfate in 0.1M H2SO4; H2O (MeOH for 10, insoluble in H2O)
metricName: ΦH2O/MeOH (%)

CCC1CN(C(C)C(=O)[O-])C(CC)CN(C(C)C(=O)[O-])C(CC)CN(C(C)C(=O)[O-])C(CC)CN1Cc1cc(C#Cc2c(OC)cc(OC)cc2OC)cc(P(C)(=O)[O-])n1.[Eu+3] (centres unmarked); 21.9
CC[C@@H]1CN(CC(=O)[O-])[C@H](CC)CN(Cc2cc(C#Cc3c(OC)cc(OC)cc3OC)cc(P(C)(=O)[O-])n2)[C@H](CC)CN(CC(=O)[O-])[C@H](CC)CN1CC(=O)[O-].[Eu+3]; 14.9
COc1cc(OC)c(C#Cc2cc(CN3C[C@H](CC(C)C)N(CC(=O)[O-])C[C@H](CC(C)C)N(CC(=O)[O-])C[C@H](CC(C)C)N(CC(=O)[O-])C[C@@H]3CC(C)C)nc(P(C)(=O)[O-])c2)c(OC)c1.[Eu+3]; 11.1
CC[C@H]1CN(CC(=O)[O-])[C@@H](CC)CN(Cc2cc(C#Cc3c(OC)cc(OC)cc3OC)cc(P(C)(=O)[O-])n2)[C@@H](CC)CN(CC(=O)[O-])[C@@H](CC)CN1CC(=O)[O-].[Eu+3]; 14.0
COc1cc(OC)c(C#Cc2cc(CN3CCN(CC(=O)[O-])CCN(CC(=O)[O-])CCN(CC(=O)[O-])CC3)nc(P(C)(=O)[O-])c2)c(OC)c1.[Eu+3]; 7.6

---

Measured q (Horrocks'), listed per entry.
Experiment: Absorption and photoluminescence (quantum yield, lifetime, q)
Assay type: physicochemical
Conditions: from lifetimes in H2O and D2O; second value of cell
Protocol: Absorption spectra of complexes were measured with HP UV-8453 spectrophotometer. […] Spectra were recorded using a 5 spectral average sequence in the range of 570-720 nm with 0.5 nm spectral intervals and 500 μs integration time. The recorded CPL spectrum underwent a 25% Fourier transformation smoothening protocol using Origin 8.0 Software (Origin Labs) to enhance appearance (all calculations were carried out using raw spectral data). […]
metricName: q (Horrocks')

COc1cc(OC)c(C#Cc2cc(CN3CCN(CC(=O)[O-])CCN(CC(=O)[O-])CCN(CC(=O)[O-])CC3)nc(P(C)(=O)[O-])c2)c(OC)c1.[Eu+3]; 0.01
CC[C@H]1CN(CC(=O)[O-])[C@@H](CC)CN(Cc2cc(C#Cc3c(OC)cc(OC)cc3OC)cc(P(C)(=O)[O-])n2)[C@@H](CC)CN(CC(=O)[O-])[C@@H](CC)CN1CC(=O)[O-].[Eu+3]; 0.02
CCC1CN(C(C)C(=O)[O-])C(CC)CN(C(C)C(=O)[O-])C(CC)CN(C(C)C(=O)[O-])C(CC)CN1Cc1cc(C#Cc2c(OC)cc(OC)cc2OC)cc(P(C)(=O)[O-])n1.[Eu+3] (stereo not drawn); 0.06
